# normalized growth per record follows
experiment: chemical genetic growth profiling, strain panel (AID 1159580);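 also: tested at 20 µM; growth read once vehicle control cultures reached saturation at 30 °C; 1 = growth at the plate median or of vehicle wells; lower values mean less growth of the strain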; details: S. cerevisiae deletion strains, growth OD, locus YLR371W, strain rom2, hits give low values
The whole screen tested about 5,500 compounds, of which about 2,000 (36%) were called active. Another 18% or so got no clear call; they are omitted. Some of the results follow.
Format: numeric value only, no unit, no commentary.

response.value for CC(=O)OCC1=C(C(=O)O)N2C(=O)[C@@H](NC(=O)Cc3cccs3)[C@H]2SC1 (field: normalized growth) = 0.998

# normalized growth (compound: C[C@@H]1O[C@@H](OC[C@H]2OC(Oc3c(-c4ccc(O)c(O)c4)oc4cc(O)cc(O)c4c3=O)[C@H](O)[C@@H](O)[C@@H]2O)[C@H](O)[C@H](O)[C@H]1O (stereo not given in full) ) is 0.995

###

assay: chemical genetic growth profiling, strain panel (AID 1159580);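 also: tested at 20 µM; growth read once vehicle control cultures reached saturation at 30 °C; 1 = growth at the plate median or of vehicle wells; lower values mean less growth of the strain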; settings: S. cerevisiae deletion strains, growth OD, locus YNL298W, strain CLA4 (second series)
About 2,000 (36%) of roughly 5,500 compounds were called active. Roughly 18% stayed inconclusive and do not appear here. No stated cut-off is given here; in the data, active means normalized growth mostly below about 0.91 (no sharp cut-off); inconclusive means no clear call, values can overlap the other calls; inactive means mostly above about 0.92. This is one part of the list.
Hi there, use one of these labels in your reply, thanks! True (active), False (inactive)

Look over these answered cases.
**Q:** Could you please tell me the result logged for COCCCNC(=S)N/N=C\c1cccc(OC)c1O in this assay?
**A:** False

**Q:** Dear all, I need the recorded test outcome for O=C1CC(Nc2ccccc2)C=C1Nc1ccccc1 (configuration not stated) , thank you.
**A:** False

**Q:** Returns: the outcome recorded for CSc1nsc(SC)c1C(=O)NC(=O)Nc1ccc(F)cc1F in this assay.
**A:** False

**Q:** Name the outcome recorded for Cc1cc(I)c(C)cc1I in the assay.
**A:** False

**Q:** Write down the call the test reported for this molecule. Item: OC1(C(F)(F)F)CC(c2ccc3ccccc3c2)=NN1 (configuration not stated)
**A:** True

**Q:** Which outcome was assigned to Clc1ccc(C=C2c3ccccc3-c3ccccc32)cc1 in this test?
**A:** False

**Q:** Assay outcome for COC(=O)CSc1ncnc2c(C)csc12 : what was it?
**A:** False

**Q:** Please state the recorded outcome for this molecule: O=C1c2ccccc2C(=O)N1CNc1ccc(N2CCOCC2)cc1
**A:** False

**Q:** Write down the call the test reported for this molecule. Item: COC(=O)CSc1nc2ccc(Cl)cc2s1
**A:** False

**Q:** Recorded call for CCOC(=O)C1=C(N)Oc2ccc(Br)cc2C1C(C#N)C(=O)OCC (configuration not stated) ?
**A:** True

More entries:
**Q:** Just curious, what result did COc1ccccc1Oc1ccc(C(F)(F)F)cc1NC(=O)NC(=O)c1ccccc1F get here?
**A:** False

**Q:** Which outcome was assigned to OC1(C(F)(F)F)CC(c2ccccc2)=NN1 (configuration not stated) in this test?
**A:** False

###

experiment: chemical genetic growth profiling, strain panel (AID 1159580);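 also: tested at 20 µM; growth read once vehicle control cultures reached saturation at 30 °C; 1 = growth at the plate median or of vehicle wells; lower values mean less growth of the strain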; details: S. cerevisiae deletion strains, growth OD, locus YOR184W, strain ser1, hits give low values
The whole screen tested about 5,500 compounds, of which about 2,000 (36%) were called active. Not shown: some 18% with an inconclusive outcome. This is one part of the list.
Measured normalized growth, listed per entry for reference.
Respond numerically, and do not add a unit to the figure.

Examples with answers:
Lab book: normalized growth of COC(=O)[C@@]1(C)CCC[C@]2(C)c3ccc(O)c(C(C)C)c3CCC12 (some centres undefined) noted as 0.355

For record COc1c2ccoc2cc2oc(=O)ccc12 the listed normalized growth is 0.46

Per the records, this compound ( CC(=O)O[C@@H]1CC(=O)[C@@]2(C)C(CC(=O)[C@]3(C)C2CC[C@@]2(C)[C@H](c4ccoc4)OC(=O)C4OC423)C1(C)C (some centres undefined) ) has normalized growth equal to 1.02

// recorded normalized growth for O=C(O)C1=C[C@@H](O)[C@@H](O)[C@H](O)C1 : 1.02

Measured normalized growth of O=C(Cc1cccs1)NC1C(=O)N2C(C(=O)[O-])=C(C[n+]3ccccc3)CSC12 (centres undefined) : 0.983

Further cases:
Consider CC(=O)OC1CN2CCC1CC2 (centres undefined) . Its measured normalized growth is 0.98

// recorded normalized growth for CC1(C)O[C@H]2CC(=O)OC[C@]23[C@H]2CC[C@@]4(C)[C@H](c5ccoc5)OC(=O)[C@H]5O[C@]54[C@]2(C)C(=O)C[C@@H]13 : 0.988

The value of normalized growth measured for the compound COC(=O)C1OC(=O)C2OC23C1(C)CCC1C2(C)C(OC(C)=O)CC(OC(C)=O)C(C)(C)C2CC(=O)C13C (centres undefined) turned out to be 0.966

For this compound ( CC(C)c1c(O)ccc2c1CCC1[C@@](C)(C=O)CCC[C@]21C (some centres undefined) ), measured normalized growth is 0.153
